tested on: S. pneumoniae isolates; assay: Disk diffusion susceptibility (CLSI/EUCAST), Example 5; assay type: cell-based, Streptococcus pneumoniae; settings: WCH184
Endpoint label: disk diffusion zone diameter (mm)
Numbers only, in mm.

CC1(C)S[C@@H]2[C@H](NC(=O)[C@H](N)c3ccccc3)C(=O)N2[C@H]1C(=O)O; 33
CC[C@H]1OC(=O)[C@H](C)[C@@H](O[C@H]2C[C@@](C)(OC)[C@@H](O)[C@H](C)O2)[C@H](C)[C@@H](O[C@@H]2O[C@H](C)C[C@H](N(C)C)[C@H]2O)[C@](C)(OC)C[C@@H](C)C(=O)[C@H](C)[C@@H](O)[C@]1(C)O; 10
CN[C@H](CC(C)C)C(=O)N[C@H]1C(=O)N[C@@H](CC(N)=O)C(=O)N[C@H]2C(=O)N[C@H]3C(=O)N[C@H](C(=O)N[C@H](C(=O)O)c4cc(O)cc(O)c4-c4cc3ccc4O)[C@H](O)c3ccc(c(Cl)c3)Oc3cc2cc(c3O[C@@H]2O[C@H](CO)[C@@H](O)[C@H](O)[C@H]2O[C@H]2C[C@](C)(N)[C@H](O)[C@H](C)O2)Oc2ccc(cc2Cl)[C@H]1O; 23
CCC[C@@H]1C[C@@H](C(=O)N[C@@H]([C@H]2O[C@H](SC)[C@H](O)[C@@H](O)[C@H]2O)[C@H](C)Cl)N(C)C1; 10
CC[C@H]1OC(=O)[C@H](C)[C@@H](O[C@H]2C[C@@](C)(OC)[C@@H](O)[C@H](C)O2)[C@H](C)[C@@H](O[C@@H]2O[C@H](C)C[C@H](N(C)C)[C@H]2O)[C@](C)(O)C[C@@H](C)C(=O)[C@H](C)[C@@H](O)[C@]1(C)O; 10
O=C(N[C@H](CO)[C@H](O)c1ccc([N+](=O)[O-])cc1)C(Cl)Cl; 29

Each of the following entries comes with a recorded value; kindly state disk diffusion zone diameter for each.
1. Cc1onc(-c2ccccc2)c1C(=O)N[C@@H]1C(=O)N2[C@@H]1SC(C)(C)[C@@H]2C(=O)O
2. CO[C@H]1/C=C/O[C@@]2(C)Oc3c(C)c(O)c4c(O)c(c(/C=N/N5CCN(C)CC5)c(O)c4c3C2=O)NC(=O)/C(C)=C\C=C\[C@H](C)[C@H](O)[C@@H](C)[C@@H](O)[C@@H](C)[C@H](OC(C)=O)[C@@H]1C
3. CN(C)[C@@H]1C(O)=C(C(N)=O)C(=O)[C@@]2(O)C(O)=C3C(=O)c4c(O)cccc4[C@@](C)(O)[C@H]3C[C@@H]12

11
32
11

###

Can you tell me MIC (μg/ml) at 24 hours, MRSA 1 for the items I'm about to list?
tested on: MRSA; experiment: Broth microdilution MIC, Example 7 (NCL812 and analogues); type: cell-based, Staphylococcus aureus; conditions: MRSA 1; 24 hours; duplicate lines per compound
Numbers only, in µg/mL.

Recorded MIC (μg/ml) at 24 hours, MRSA 1, per entry:
Cc1ccc(/C=N/NC(=N)N/N=C/c2ccc(C)cc2)cc1.Cl; 8
CCCCc1ccc(C=NNC(=N)NN=Cc2ccc(CCCC)cc2)cc1.Cl; 64

For the next question, use this compound.
MIC (μg/ml) at 24 hours, MRSA 1 in this record for Cl.N=C(NN=Cc1cccc(O)c1)NN=Cc1cccc(O)c1 : 64
